Would you kindly list GI50 for each of these molecules?
test system: HCT-15

// below: answered molecules
- molecule: "COc1c2c(cc3c1OCO3)[C@]13C=C[C@H](OC)C[C@H]1N(C2)CC3O (some centres undefined)"
  result: "> 100 µM"
- molecule: "Cc1cc(C)c2c(n1)S(=O)(=O)N(CCCN1CCN(c3cccc(C(F)(F)F)c3)CC1)c1c-2nn(C)c1C"
  result: "44.5 µM"
- molecule: "CCNC(=O)C1CCCN1C(=O)C(CCCN=C(N)N)NC(=O)C(CC(C)C)NC(=O)C(Cc1c[nH]c2ccccc12)NC(=O)C(Cc1ccc(O)cc1)NC(=O)C(CO)NC(=O)C(Cc1c[nH]c2ccccc12)NC(=O)C(Cc1c[nH]cn1)NC(=O)C1CCC(=O)N1 (centres undefined)"
  result: "> 100 µM"

Turning now to a further molecule:
Problem: Form field - read-out: GI50; system: HCT-15; submitted item: O=C1C[C@H]2CC3(CC[C@H]2CN1)OCCO3
Solution: > 100 µM

* * *

tested on: MOLT-4; assay: NCI tumour cell line growth inhibition, 48 h
Active and inactive are the calls of the source. Rule as the data show it: active = GI50 up to about 1.1 µM and inactive = higher.
Return exactly one item of active, inactive

# example entries with known answers
- compound: "Cc1cc(S(=O)(=O)[N-]C(=C(C#N)C#N)[n+]2ccc(N(C)C)cc2)c(SCC(=O)O)cc1Cl"
  qualitative label: "inactive"
- compound: "COc1c2c(cc3c1OCO3)[C@]13C=C[C@H](OC)C[C@H]1N(C2)CC3O (stereo not given in full)"
  qualitative label: "inactive"
- compound: "O[C@]12c3ccccc3C1CCCC2N1CCOCC1 (stereo not given in full)"
  qualitative label: "inactive"

Problem: Each compound tested received a call. Report the one for COc1ccc(N2C=Nn3c(nc4sc5c(c4c3=O)CCCC5)C2)cc1 .
Solution: inactive

Problem: Then what about the compound CC(=O)OC1CC[C@@]2(C)C(=CC[C@@H]3[C@@H]2CC[C@]2(C)Nc4nn(S(C)(=O)=O)cc4C[C@@H]32)C1 (stereo not given in full) ?
Solution: inactive

Problem: And for c1ccc(C2=NOC(c3ccccc3)N2C23CC4CC(CC(C4)C2)C3)cc1 (stereo not given) ?
Solution: inactive

Problem: Another compound to check: CN(C)CC1CC/C(=C\c2ccc(O)cc2)C1=O (stereo not given)
Solution: inactive

* * *

system: A498; assay: NCI tumour cell line growth inhibition, 48 h
Active and inactive are the calls of the source. Cut-off read from the data, not from the text of the source: active = GI50 up to about 1.1 µM and inactive = higher.
Returns: one label drawn from t for active, f for inactive

Past entries and their recorded results:
- compound: "COC1(OC)C2C=CC1C([C@](C)(N)CO)C2 (stereo partly specified)"
  qualitative label: "f"
- compound: "CCN(CC)c1c(-c2c(N(CC)CC)c(OC(C)=O)c3sccn3c2=O)c(=O)n2ccsc2c1OC(C)=O"
  qualitative label: "f"
- compound: "C=C(C)C1Cc2c(cc(OC)c3c(=O)c4ccccc4n(C)c23)O1 (stereo unspecified)"
  qualitative label: "f"
- compound: "CN1CCCC2(CCCc3ccccc32)C1 (stereo unspecified)"
  qualitative label: "f"
- compound: "c1cc(NNc2cccc(-c3nnn[nH]3)c2)cc(-c2nnn[nH]2)c1"
  qualitative label: "f"
- compound: "COC(=O)C1CCC(=O)N1C(c1ccc(OC)cc1)c1cc(OC)c(OC)c(OC)c1 (stereo unspecified)"
  qualitative label: "t"
- compound: "CCOC(=O)C(NC(=O)Nc1ccccc1F)(OC)C(F)(F)F (stereo unspecified)"
  qualitative label: "f"
- compound: "O=[N+]([O-])c1ccc(S(=O)(=O)Cc2ccccc2)c2nonc12"
  qualitative label: "f"
- compound: "Cc1nc(N)c(N2CCNCC2)c(O)n1"
  qualitative label: "f"
- compound: "O=C(C[n+]1ccc2ccccc2c1)c1ccc2ccc3ccccc3c2c1"
  qualitative label: "f"

Moving on to another compound below.
Problem: // outcome(item) with item = CCCCCCCCCCCC(=O)N(CCCCCCCCC)CC(O)C(O)C(OC1OC(CO)C(O)C(O)C1O)C(O)CO (stereo unspecified)
Solution: f

* * *

system: IGROV-1; assay: NCI tumour cell line growth inhibition, 48 h
Activity calls are given as the source filed them. Rule as the data show it: active = GI50 up to about 1.1 µM and inactive = higher.
Write down the outcome that applies. Available outcomes: True for active, False for inactive

Known results for molecules:
- molecule: "CCOC(=O)C1=NN(c2ccccc2)C2=CC(C)=NN(C)C(=S)N21"
  target desc: "IGROV-1"
  qualitative label: "False"
- molecule: "O=C(/C=C/c1ccc(O)cc1)c1ccc(O)cc1 [4,4'-DIHYDROXYCHALCONE]"
  target desc: "IGROV-1"
  qualitative label: "False"
- molecule: "CC(=O)NC(Cc1ccccc1)NC(=O)O (stereo not given)"
  target desc: "IGROV-1"
  qualitative label: "False"
- molecule: "CCCCCCCCCCCCCCCCCC(=O)O[C@H](COC(=O)CCCCCCCCCCC)COC(=O)CCCCCCCCCCCCCCC"
  target desc: "IGROV-1"
  qualitative label: "False"
- molecule: "C/C(CCN(C)C)=N\\OC(=O)c1ccccc1"
  target desc: "IGROV-1"
  qualitative label: "False"
- molecule: "COc1cc2c(cc1OC)[C@H]1C(COC(=O)Nc3ccccc3)CN1CC2 (stereo not given in full)"
  target desc: "IGROV-1"
  qualitative label: "False"

Problem: GET /call?item= COc1ccc2c(c1)/C(=C\c1c(-c3ccccc3)nc3n1CCS3)C(=O)N2 returns the recorded outcome of this test.
Solution: False

Problem: Try this molecule too: Cc1nc(Cl)c(Cl)c(Cl)n1
Solution: True

Problem: Now give it for O=C(/N=N/c1cc(Cl)ccc1Cl)NNc1cc(Cl)ccc1Cl too.
Solution: False

Problem: And what about the molecule O=C1c2ccccc2C(=O)c2nn(N=P(CP(=Nn3nc4c(n3)C(=O)c3ccccc3C4=O)(c3ccccc3)c3ccccc3)(c3ccccc3)c3ccccc3)nc21 ?
Solution: False

* * *

tested on: SF-295; test: NCI tumour cell line growth inhibition, 48 h
Activity calls are given as the source filed them. Cut-off read from the data, not from the text of the source: active = GI50 up to about 1.1 µM and inactive = higher.
Outcome field: choose from active, inactive

- compound: "C[Si](C)(C)C#CCOC=C1CC1"
  qualitative label: "inactive"
- compound: "O=C1CC2C(=O)c3ccccc3CC2c2ccccc21 (configuration not stated)"
  qualitative label: "inactive"
- compound: "CNS(=O)(=O)NN(C)S(=O)(=O)c1ccc(C)cc1"
  qualitative label: "inactive"
- compound: "Cc1ccnc2[nH]c(-c3ccccc3)cc(=O)c12"
  qualitative label: "active"
- compound: "CC(C)OP(=O)(OC(C)C)C(C(F)(F)F)C(F)(F)F"
  qualitative label: "inactive"

Kindly consider the entry below.
Problem: Write down the call the test reported for this compound. Item: On1c(-c2ccccc2)nc2ccccc2c1=S
Solution: inactive

* * *

test system: PC-3; test: NCI tumour cell line growth inhibition, 48 h
Active and inactive are the calls of the source. Cut-off read from the data, not from the text of the source: active = GI50 up to about 1.1 µM and inactive = higher.
attribute measured: GI50

Here's what some known entries look like.
- compound: "Nc1nc(NCC2(CO)CC(CCc3ccccc3)C2)cc(=O)[nH]1 (centres undefined)"
  target desc: "PC-3"
  GI50: "> 100 µM (inactive)"
- compound: "O=C1/C(=C/c2ccc(Cl)cc2)CCC/C1=C\\c1ccc(O)c(CN2CCCCC2)c1"
  target desc: "PC-3"
  GI50: "8.91 µM (inactive)"
- compound: "O=C(/C=C/c1ccccc1)CCc1c(O)c2ccccc2oc1=O"
  target desc: "PC-3"
  GI50: "43.9 µM (inactive)"
- compound: "Cc1c2cnccc2c(C)c2c1[nH]c1ccc(O)cc12"
  target desc: "PC-3"
  GI50: "2.15 µM (inactive)"
- compound: "Cc1ccsc1/C=N/Nc1ccc2ccccc2n1"
  target desc: "PC-3"
  GI50: "19.6 µM (inactive)"
- compound: "Cc1cc(C)nc(NS(=O)(=O)c2ccc(NC(=O)c3cccc4c(NNc5ccc(S(=O)(=O)N=C(N)N)cc5)c5ccccc5nc34)cc2)n1"
  target desc: "PC-3"
  GI50: "> 50 µM (inactive)"

Each of the following entries comes with a recorded value; kindly state GI50 for each.
1. OCCN1CCN(c2nc(N3CCCC3)c3nc(Cl)c(NCc4ccccc4)nc3n2)CC1
2. NCC(O)CSP(=O)(O)O (centres undefined)

Solution:
1: 9.27 µM (inactive); 2: > 100 µM (inactive)

Problem: Given the compound COc1ccc(NC(=S)NN=C(C)c2cccc(C(C)=NNC(=S)Nc3ccc(OC)cc3)n2)cc1 , what is its reported GI50?
Solution: 27.2 µM (inactive)

* * *

system: HOP-62; assay: NCI tumour cell line growth inhibition, 48 h
Active and inactive are the calls of the source. Cut-off read from the data, not from the text of the source: active = GI50 up to about 1.1 µM and inactive = higher.
Mark one answer only. Choices: active, inactive

- compound: "NNC(=O)CNc1cccc(Br)c1"
  qualitative label: "inactive"

Problem: Give the logged outcome of this assay for the following compound: O=C(/C=C1\N=C(c2ccccc2)N(c2nc3c(Cl)cc(Cl)cc3s2)C1=O)/C=C/c1ccccc1
Solution: inactive

Problem: And then CC(C)(C)C1CCC(=O)/C(=C/CC2CC(=O)N(c3ccccc3)C(=O)C2)C1 (stereo not drawn) , what is it?
Solution: inactive

Problem: Try this compound next: O=C(CC(=O)n1nc(-c2ccccc2)c(/N=N/c2ccccc2Cl)c1-c1ccccc1)Nc1ccc(Cl)cc1
Solution: inactive

Problem: Further, for NS(=O)(=O)c1ccc(Nc2c3ccccc3nc3c(C(=O)N4CCN(CCO)CC4)cccc23)cc1 ?
Solution: inactive

Problem: Would you kindly repeat that for Cc1c2cnccc2c(C)c2c1[nH]c1ccc(O)cc12 ?
Solution: active

Problem: Could you do the same for CC1OC(OC2C(CO)OC(O[C@H]3CC[C@@]4(C)C(=CC[C@H]5[C@@H]6C[C@@H]7O[C@](O)(CC[C@@H](C)COC8OC(CO)C(O)C(O)C8O)[C@@H](C)[C@@H]7[C@@]6(C)CC[C@@H]54)C3)C(OC3OC(C)C(O)C(O)C3O)C2O)C(O)C(O)C1O (stereo partly drawn) , please?
Solution: inactive

Problem: And Cc1nc(N)c(N2CCNCC2)c(O)n1 ?
Solution: inactive
